target: ATX (full length human β form with a C-terminal 6-His tag) (Homo sapiens); type: biochemical; settings: LE = −RTpKi/nb heavy atoms; from concentration response pIC50
readout.label: LE (ligand efficiency)

| molecule | assay.value |
| --- | --- |
| COc1cccc(B(O)O)c1 [Compound 17] | 0.58 |
| OB(O)c1ccc2cc[nH]c2c1 [Compound 1] | 0.65 |
| Nc1cccc(-c2nnc[nH]2)c1 [Compound 8] | 0.41 |
| OB(O)c1cccc(O)c1 [Compound 5] | 0.68 |
| COc1cc(COc2ccc(B(O)O)cc2Cl)cc(OC)c1 [Compound 22] | 0.40 |
| OB(O)c1ccc(O)cc1 [Compound 9] | 0.68 |
| OB(O)c1ccc2nonc2c1 [Compound 3] | 0.57 |
| NCc1cccc(O)c1 [Compound 6] | 0.44 |
| Oc1ccc2nonc2c1 [Compound 4] | 0.50 |
| OB(O)c1ccccc1OCc1cccc(Cl)c1 [Compound 16] | 0.45 |
| COc1ccccc1B(O)O [Compound 15] | 0.67 |
| COc1ccc(B(O)O)cc1 [Compound 13] | 0.66 |
| O=C(O)c1ccc2cc[nH]c2c1 [Compound 2] | 0.35 |
